These entries and their values trace back to PubChem BioAssay.

Molecular target: Torsin-1A-interacting protein 2 (Homo sapiens) (UniProt Q8NFQ8)
Sequence (Q8NFQ8 whole entry, looked up): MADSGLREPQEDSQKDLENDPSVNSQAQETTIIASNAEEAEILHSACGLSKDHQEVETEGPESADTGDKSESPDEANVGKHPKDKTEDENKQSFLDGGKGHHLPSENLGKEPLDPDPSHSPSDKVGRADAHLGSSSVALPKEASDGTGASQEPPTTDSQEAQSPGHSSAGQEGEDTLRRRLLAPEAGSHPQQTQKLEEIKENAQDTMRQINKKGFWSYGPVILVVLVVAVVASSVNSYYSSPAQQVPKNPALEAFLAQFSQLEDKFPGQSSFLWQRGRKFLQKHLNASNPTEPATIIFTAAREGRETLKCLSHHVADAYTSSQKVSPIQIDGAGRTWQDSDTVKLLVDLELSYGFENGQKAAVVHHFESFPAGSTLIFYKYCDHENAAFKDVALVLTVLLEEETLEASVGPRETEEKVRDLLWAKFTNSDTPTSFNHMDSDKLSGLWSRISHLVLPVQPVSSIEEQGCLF
Assay: LULL1 binders on small-molecule microarray, primary screen, cell lysate, human LULL1 lysate, 635/667 nm fluorescence (AID 1092);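 further: probe is lysate of COS7 cells overexpressing human LULL1; score merges per-feature 667 nm fluorescence with signal-to-noise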
Settings: hLULL1 lysate binding, 635 nm fluorescence, higher = more signal
Binary call on composite z-score: 1 from -0.3 upward, 0 beneath that.

{"columns": ["compound", "class_label"],
 "data": [
  ["C=C[C@@H](C)[C@H](O)c1ccc(OCCO)cc1", 1],
  ["CC(C)C[C@@H]1NC(=O)[C@@]23C(=O)N[C@@H](Cc4ccccc4)C2[C@H](C)[C@@]2(C)O[C@H]2C3/C=C/C/C=C\\CNC(=O)[C@@H](C)NC1=O (stereo not given in full)", 0],
  ["CC(C)(C)OC(=O)CC[C@]1(C(=O)N2CCCCC2)COC(c2ccc(OCCCO)cc2)=N1", 1],
  ["COc1ccc([Si](C)(C)[C@@H]2[C@@H](CCn3cc([C@H](O)c4ccccc4)nn3)O[C@]3(C(=O)N(Cc4cccc(N5C(=O)c6cccc7cccc5c67)c4)c4ccccc43)[C@H]2C)cc1", 1]
]}

* * *

Assay: modulators of HCV replicon luciferase signal, primary screen, HCV replication inhibitor project, Huh7 cells, luciferase reporter (AID 1109);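 further: huh7 hepatoma cells harbouring a luciferase neomycin HCV replicon reporter; luciferase luminescence as measure of HCV replicon replication; test concentration not given here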
Conditions: 48 h, higher = more signal

{"columns": ["molecule", "z-score"],
 "data": [
  ["CCOC(=O)C1=CC[C@@H](c2ccccc2)N(S(=O)(=O)c2ccc(C)cc2)[C@H]1C=Cc1ccccc1", -1.83],
  ["C[C@]1(C(=O)NCCN2CCOCC2)c2ccccc2C(=O)N(Cc2cc(F)cc(C(F)(F)F)c2)[C@H]1c1ccc(CO)cc1", -1.06],
  ["Cc1ccc(S[C@]2(C(=O)NCC(C)C)CC(=O)N(C3Cc4ccccc4C3)[C@@H]2c2ccc(CO)cc2I)cc1", -1.33],
  ["O=C1C2C=CC(C(O)c3ccc4c(c3)OCO4)N(Nc3ccccc3)C2C(=O)N1c1ccccc1 (centres undefined)", -0.631]
]}

* * *

Assay: small-molecule microarray binders of probe aShh, primary screen, biochemical, biotinylated probe, 635/667 nm fluorescence (AID 1114);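 further: probe is biotin-labelled aShh protein from a stem cell growth factor screen; measures binding of labelled protein to compounds printed on the slide; score merges feature fluorescence at 667 nm with signal-to-noise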
Conditions: higher = more signal
composite z-score by entry:
quantity_kind: composite z-score

{"columns": ["molecule", "quantity_kind", "recorded_result"],
 "data": [
  ["NC(=O)[C@H]1[C@@H]2C(=O)O[C@@H](c3ccccc3)[C@@H](c3ccccc3)N2[C@@H](c2ccc(O)cc2)[C@]12C(=O)Nc1ccc(C#CC3=CCCCC3)cc12", "composite z-score", -0.279],
  ["COc1ccc([Si](C)(C)[C@H]2[C@H](CC(=O)N3CCC[C@H]3CO)O[C@@]3(C(=O)N(Cc4ccc(N5CCC5=O)cc4)c4ccccc43)[C@@H]2C)cc1", "composite z-score", -0.0709],
  ["CCOC(=O)C1=C[C@@H](C(C)(C)C)N(S(=O)(=O)c2ccc(C)cc2)[C@H]1c1cccc(Cl)c1", "composite z-score", 0.186],
  ["COC(=O)[C@@]1(Cc2ccc(OC)cc2)[C@H]2c3cc(C(=O)N4CCCC4)n(Cc4ccc(S(C)(=O)=O)cc4)c3C[C@H]2CN1C(=O)c1ccccc1", "composite z-score", 0.883],
  ["NCCCCCNC(=O)[C@@H]1C[C@@H]2C(=O)N3CCC[C@H]3C(=O)N2[C@@H]1c1ccc(O)cc1", "composite z-score", 0.163],
  ["C=C(C)[C@@H]1CC=C(C(O)C2C=CC3C(=O)N(c4ccccc4)C(=O)C3N2Nc2ccc(C#N)cc2)CC1 (some centres not stated)", "composite z-score", 0.0469],
  ["COC(=O)[C@@]1(Cc2ccc(F)cc2)[C@H]2c3cc(C(=O)N4CCCC4)n(CC4CC4)c3C[C@H]2CN1C(=O)c1ccccc1", "composite z-score", 0.184]
]}

* * *

Experiment: basal RPMI8226 viability, no added stimulus, profiling panel, cell-based, calcein-AM fluorescence, 48 h, PK04 Diversity Set (AID 1166);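 further: cells grown under basal conditions without added stimulus; test concentration not given here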
Settings: RPMI8226 myeloma viability, higher = more signal
quantity_kind: z-score

{"columns": ["compound", "quantity_kind", "recorded_result"],
 "data": [
  ["CC(C)CNC(=O)[C@@]1(C)c2ccccc2C(=O)N(Cc2cc(C(F)(F)F)cc(C(F)(F)F)c2)[C@H]1c1ccc(CO)cc1", "z-score", 0.208],
  ["COCCOC(=O)N1C(=O)[C@@]2(c3cc(C#CCCO)ccc31)[C@H](C(=O)N1CCCCCCC1)[C@H]1C(=O)O[C@H](c3ccccc3)[C@H](c3ccccc3)N1[C@@H]2c1ccccc1OCCO", "z-score", -1.62],
  ["CCOC(=O)C=Cc1cc(F)ccc1O", "z-score", -1.39],
  ["O=C(NCCN1CCOCC1)[C@@H]1c2ccccc2C(=O)N(Cc2ccccc2)[C@H]1c1ccc(CO)cc1", "z-score", 0.137],
  ["C=C(/C(=C/C[C@H](OC(=O)c1ccncc1)c1ccccc1OCCO)c1cnc2ccccc2c1)C(C)C", "z-score", -0.906],
  ["O=C(O)[C@@H]1C[C@@H]2C(=O)N3CCC[C@H]3C(=O)N2[C@@H]1c1cccc(OCCO)c1", "z-score", -0.159],
  ["C=C(C)C1CCC(C(O)C2C=CC3C(=O)N(C)C(=O)C3N2Nc2cc(OC)c(OC)c(OC)c2)CC1 (stereo unspecified)", "z-score", -0.0317],
  ["COCCOC(=O)N1C(=O)[C@@]2(c3ccccc31)[C@H](c1ccc(OCCO)cc1)N1[C@H](c3ccccc3)[C@H](c3ccccc3)OC(=O)[C@H]1[C@@H]2C(=O)N1CCCCCCC1", "z-score", -0.846],
  ["COC(=O)[C@@]1(Cc2ccc(F)cc2)[C@H]2c3cc(C(=O)N(C)C)n(Cc4ccc(O)c(OC)c4)c3C[C@H]2CN1C(=O)c1ccccc1", "z-score", -1.92],
  ["CCOC(=O)C1=C[C@@H](C(C)(C)C)N(S(=O)(=O)c2ccc(C)cc2)[C@H]1c1ccc(C)cc1", "z-score", -1.1],
  ["COCCCNC(=O)[C@@H]1c2ccccc2C(=O)N(C2Cc3ccccc3C2)[C@H]1c1ccc(CO)cc1", "z-score", 0.261],
  ["CCCCNC(=O)c1ccc(C#C[Si](C(C)C)(C(C)C)C(C)C)c(OC(C)=O)c1", "z-score", -4.09],
  ["CCOC(=O)C1=CC[C@@H](c2ccccc2)N(S(=O)(=O)c2ccc(C)cc2)[C@H]1c1cccc(OC)c1", "z-score", -0.907],
  ["COc1ccc([Si](C)(C)[C@H]2[C@H](CCO)O[C@@]3(C(=O)N(Cc4ccccc4)c4ccc(N5CCOC5=O)cc43)[C@@H]2C)cc1", "z-score", -3.4],
  ["C=C[C@H](C)[C@H](OC(=O)Nc1ccc(OC)cc1)c1ccc(OCCO)cc1", "z-score", -1.83],
  ["[N-]=[N+]=NCc1ccccc1C[C@]1(C(=O)N2CCOCC2)COC(c2ccc(OCCCO)cc2)=N1", "z-score", -2.89],
  ["CCCCC(=C=CC[C@H](O)c1ccc(OCCO)cc1)C[C@H](O)COCc1ccccc1", "z-score", -0.565],
  ["CCOC(=O)C1=C[C@@H](C(C)(C)C)N(S(=O)(=O)c2ccc(C)cc2)[C@H]1c1cccc(Cl)c1", "z-score", -4.21],
  ["O=C1C2C=CC(C(O)c3ccc(I)cc3)N(Nc3ccccc3)C2C(=O)N1c1ccccc1 (stereo unspecified)", "z-score", -0.311],
  ["O=C1OCCC=C[C@H]2OC34C=CCN(c5ccc(Cl)cc5)C(=O)[C@H]3N(CCCCCCO)C(=O)[C@@H]4C12 (stereo partly specified)", "z-score", -1.1],
  ["O=C1[C@@H]2[C@@H](CC(COc3ccccc3)=C3[C@@H](CCc4ccccc4)OB(O)C[C@@H]32)C(=O)N1Cc1ccccc1", "z-score", -4.09],
  ["COc1ccc([Si](C)(C)[C@H]2[C@H](CCO)O[C@@]3(C(=O)N(Cc4ccc(N5C(=O)c6ccccc6Oc6ccccc65)cc4)c4ccccc43)[C@@H]2C)cc1", "z-score", -4.04],
  ["O=C1C2C=CC(C(O)c3ccco3)N(Nc3ccccc3)C2C(=O)N1c1ccccc1 (stereo unspecified)", "z-score", 0.458],
  ["O=C1C2C=CC(C(O)c3cccc(O)c3)N(Nc3ccccc3)C2C(=O)N1c1ccccc1 (stereo unspecified)", "z-score", -0.444],
  ["C=C(CCCC)/C(=C/C[C@H](OC(C)=O)c1ccc(OCCO)cc1)c1cc(C(=O)OC)ccc1OC", "z-score", -1.83],
  ["CCOC(=O)C[C@H]1[C@H](OC(=O)c2ccc(-c3ccccc3)cc2)[C@@H](NC(=O)Cc2ccc(OC)cc2)c2cc(OCCCO)ccc2N1C(=O)Cc1ccc(OC)cc1", "z-score", -0.102],
  ["CC(C)C(CO)N1C(=O)[C@@H]2[C@H]3C(=O)OCC=C[C@H]3OC23C=CCN(C(C)(C)C)C(=O)[C@@H]13 (stereo partly specified)", "z-score", -0.251],
  ["CC(C)CCC[C@@H](C)[C@H]1CC[C@@]2(C)C3=C(CC[C@]12C)[C@@]1(C)CC[C@H](OC(=O)c2ccccc2)C(C)(C)C1CC3 (stereo partly specified)", "z-score", 0.201],
  ["COc1cc2c(cc1O)C(c1ccc(CN3CCCC3)cc1)N(C)CC2 (stereo unspecified)", "z-score", 0.0578],
  ["COCC(=C=CC[C@H](O)c1cccc(OCCO)c1)C[C@H](O)COCc1ccccc1", "z-score", -0.557],
  ["CC(C)=CCCC(C)=CC(O)C1C=CC2C(=O)N(c3ccccc3)C(=O)C2N1Nc1ccccc1F (stereo unspecified)", "z-score", -0.93]
]}
